Target: T1, IL-2R on human primary T cells (human, UniProt P01589 22-272; P14784 27-551; P31785 23-369)
T1 sequence (looked up) 1: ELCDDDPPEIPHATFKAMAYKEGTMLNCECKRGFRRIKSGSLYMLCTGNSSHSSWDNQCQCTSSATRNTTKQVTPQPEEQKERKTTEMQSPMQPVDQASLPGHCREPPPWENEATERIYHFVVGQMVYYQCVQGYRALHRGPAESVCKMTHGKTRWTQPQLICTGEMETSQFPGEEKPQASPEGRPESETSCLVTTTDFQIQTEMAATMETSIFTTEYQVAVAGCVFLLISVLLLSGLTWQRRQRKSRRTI
T1 sequence (looked up) 2: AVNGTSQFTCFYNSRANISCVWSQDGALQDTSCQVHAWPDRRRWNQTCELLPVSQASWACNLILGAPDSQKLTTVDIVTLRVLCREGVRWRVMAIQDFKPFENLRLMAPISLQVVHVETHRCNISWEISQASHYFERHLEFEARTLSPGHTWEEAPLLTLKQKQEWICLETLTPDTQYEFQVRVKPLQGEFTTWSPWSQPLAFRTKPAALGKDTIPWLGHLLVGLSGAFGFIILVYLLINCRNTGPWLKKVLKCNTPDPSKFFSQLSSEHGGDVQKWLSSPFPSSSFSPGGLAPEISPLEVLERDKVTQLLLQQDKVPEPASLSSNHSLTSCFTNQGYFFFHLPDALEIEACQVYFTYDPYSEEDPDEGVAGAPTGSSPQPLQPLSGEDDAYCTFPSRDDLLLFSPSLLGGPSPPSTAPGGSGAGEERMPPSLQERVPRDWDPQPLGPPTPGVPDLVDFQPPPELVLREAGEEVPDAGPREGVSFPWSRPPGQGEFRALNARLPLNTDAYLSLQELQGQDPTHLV
T1 sequence (looked up) 3: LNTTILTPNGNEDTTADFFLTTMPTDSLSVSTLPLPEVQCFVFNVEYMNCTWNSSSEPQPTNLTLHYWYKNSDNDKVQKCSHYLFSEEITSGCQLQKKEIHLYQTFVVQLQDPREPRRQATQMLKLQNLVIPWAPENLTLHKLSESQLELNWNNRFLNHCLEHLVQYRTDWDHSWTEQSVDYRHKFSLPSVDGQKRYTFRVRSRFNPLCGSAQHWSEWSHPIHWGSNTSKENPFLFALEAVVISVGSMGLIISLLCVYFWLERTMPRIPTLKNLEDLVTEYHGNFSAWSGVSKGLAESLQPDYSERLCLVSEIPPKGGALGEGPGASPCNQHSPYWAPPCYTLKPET
Assay: cell-based or functional assay
Overview of reported CD8 naïve EC50 (nM), STAT5 phosphorylation across a group of binders:
Reply numerically in nM, unit not repeated.

- Binder: "SEQ ID NO 29 (ligand) APTSSSTKKTQLQLEHLLLDLQMILNGINNHKNPRLTRMLTFKFYMPKKATELKHLQCLEEELKPLEEVLNLAPSKNFHLRPRDLISNINVIVLELKGSETTFMCEYADETATIVEFLNRWITFSTSIISTLT"
  Measured Result: 10000

As a next step, examine the binder that follows.
Please give the measured CD8 naïve EC50 (nM), STAT5 phosphorylation for this binder: SEQ ID NO 34 (ligand) APTSSSTKKTQLQLEHLLLDLQMILNGINNHKNPKLTRMLTFKFYMPKKATELKHLQCLEEELKPLEEVLNLAQSKNFHLRPRDLISDINVIVLELKGSETTFMCEYADETATIVEFLNRWITFSQSIISTLT
1000
